biological target: T1, Human CD137 ECD (human); experiment: Biacore SPR, vs parent H183/L072
T1 construct: entry includes C-terminal His-tag and biotin acceptor peptide; also called human CD137 extracellular domain; 4-1BB
T1 sequence (chain, as listed by the source limits assumed): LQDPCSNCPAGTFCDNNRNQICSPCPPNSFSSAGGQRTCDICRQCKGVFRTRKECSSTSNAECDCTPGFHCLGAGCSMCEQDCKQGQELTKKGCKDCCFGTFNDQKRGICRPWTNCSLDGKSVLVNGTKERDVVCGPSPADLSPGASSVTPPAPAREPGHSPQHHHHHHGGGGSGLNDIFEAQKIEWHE
quantityMeasured: fold change of affinity (fold)
Please respond with the number in fold and leave the unit unwritten.

Worked set:
H183/L072 VL S26R (antibody, name in Kabat numbering, V domains shown, Dual-Ig) VH: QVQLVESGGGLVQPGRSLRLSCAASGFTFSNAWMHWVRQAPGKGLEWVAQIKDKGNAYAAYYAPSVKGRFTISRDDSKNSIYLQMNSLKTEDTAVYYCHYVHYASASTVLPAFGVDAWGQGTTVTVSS VL: DIVMTQSPLSLPVTPGEPASISCQARQELVHMNRNTYLHWYQQKPGQAPRLLIYKVSNRFPGVPDRFSGSGSGTDFTLKISRVEAEDVGVYYCAQGTSVPFTFGQGTKLEIK	0.3
H183/L072 VL E27aQ (antibody, name in Kabat numbering, V domains shown, Dual-Ig) VH: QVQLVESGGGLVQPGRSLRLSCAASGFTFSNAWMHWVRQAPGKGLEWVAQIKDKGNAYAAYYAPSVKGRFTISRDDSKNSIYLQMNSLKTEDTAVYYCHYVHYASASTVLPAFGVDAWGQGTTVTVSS VL: DIVMTQSPLSLPVTPGEPASISCQASQQLVHMNRNTYLHWYQQKPGQAPRLLIYKVSNRFPGVPDRFSGSGSGTDFTLKISRVEAEDVGVYYCAQGTSVPFTFGQGTKLEIK	1.1

**Query** // returns reported fold change of affinity for input H183/L072 VL G91K (antibody, name in Kabat numbering, V domains shown, Dual-Ig) VH: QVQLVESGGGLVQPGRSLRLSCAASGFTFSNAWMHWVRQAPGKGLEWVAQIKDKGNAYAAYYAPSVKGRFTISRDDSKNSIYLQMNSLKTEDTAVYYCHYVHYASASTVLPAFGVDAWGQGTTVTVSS VL: DIVMTQSPLSLPVTPGEPASISCQASQELVHMNRNTYLHWYQQKPGQAPRLLIYKVSNRFPGVPDRFSGSGSGTDFTLKISRVEAEDVGVYYCAQKTSVPFTFGQGTKLEIK
**Result** 0
